B1: WDR41 (parent)
chain: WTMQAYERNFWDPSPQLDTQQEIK

Variants of: B1
Assay text: protein stability index of a GFP-peptide fusion (GPS, HEK-293T) (PSI 1-6); higher = more stable;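 also: lentivirally expressed fusions sorted by FACS into six bins by GFP to DsRed ratio, PSI derived from sequencing read proportions per bin multiplied by bin number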
Test context: c terminus: a fixed tail appended
Short version: protein stability index at least 3 is Yes, less is No.

INSERT INTO assay_data (variant_notation, qualitative_label) VALUES
  ('F10N', 'Yes'),
  ('N9K', 'No'),
  ('A5D', 'Yes'),
  ('L17N', 'No');

# next variant below
Exercise: Would you say E22V shows protein stability index at minimum 3?
Solution: No
